tested on: HCT-116 colon; assay: NCI tumour cell line growth inhibition, 48 h
observation-type: GI50

Oc1ccc(/C=N/NC(=S)Nc2ccccc2)nc1	1420 nM
C=CCc1cc(O)ccc1O	16800 nM

Could you share what GI50 was measured for CC[C@]1(O)CC2CN(CCc3c([nH]c4ccccc34)C(C(=O)OC)(c3cc4c(cc3OC)N(C=O)[C@H]3[C@@](O)(C(=O)OC)[C@H](OC(C)=O)[C@]5(CC)[C@@H]6C[C@@H]6CN6CC[C@]43[C@@H]65)C2)C1 (stereo partly drawn) , tested on HCT-116 colon?
< 3.25 nM

Now consider CN(C)C/C=C/C(=O)Nc1ccc(C(=O)Nc2cccc(Nc3ncc(Cl)c(-c4c[nH]c5ccccc45)n3)c2)cc1 .
< 13.1 nM

Now consider Oc1c(Cl)cc(Cl)c(Cl)c1Cc1c(O)c(Cl)cc(Cl)c1Cl .
410 nM

Now consider Cn1ccc(S(=O)(=O)N2CCC[C@H](Nc3nccc(-c4c(-c5cccc(O)c5)nc5occn45)n3)C2)n1 .
3930 nM

Now consider CCNCCS(=O)(=O)NC[C@@]1(c2ccccc2)SC(NC(=O)C(C)(C)C)=NN1C(=O)C(C)(C)C .
< 10 nM

Now consider CCCCCCCCCCCCCCCC(=O)OCC1OC(OCCCC)[C@H](O[C@@H]2OC(C)C(OC(=O)CCC)C(O)C2O)C(O)C1O (stereo partly drawn) .
15400 nM
